Species: Rattus norvegicus
Test: Open TG-GATES - Regimen: Daily Repeat
Type: toxicity, organism-based, Sprague-Dawley
Set-up: regimen Daily Repeat, gender Male, age 6 weeks
Conditions: in vivo, po, 0 mg/kg, 72 h, tissue Plasma, route gavage, dose level Control, time 3 day
The entries below come with measured AST values attached.
Provide the reading as a plain figure in IU/L.

See these solved cases before continuing.
compound	AST [IU/L]
CCC1(c2ccccc2)C(=O)NC(=O)NC1=O	61.4
OCCOCCN1CCN(C(c2ccccc2)c2ccc(Cl)cc2)CC1 (configuration not stated) [HYDROXYZINE]	68.8
CCc1oc2ccccc2c1C(=O)c1cc(Br)c(O)c(Br)c1	62.8
CC(C)N(CCC(C(N)=O)(c1ccccc1)c1ccccn1)C(C)C (configuration not stated) [DISOPYRAMIDE]	80.8

Prompt: Give recorded AST. `CC[C@H]1[C@@H]2C[C@H]3[C@@H]4N(C)c5ccccc5[C@]45C[C@@H]([C@@H]2[C@H]5O)N3[C@@H]1O`
Completion: 63.8

Prompt: Look up and report measured AST for this entry: `O=NN(CCCl)C(=O)NC1CCCCC1`
Completion: 69.4

Prompt: Report measured AST; entry is `CCCCc1oc2ccccc2c1C(=O)c1cc(I)c(OCCN(CC)CC)c(I)c1`
Completion: 72.6

---

Species on record: Rattus norvegicus
Experiment: Open TG-GATES - Regimen: Daily Repeat
Assay type: toxicity, organism-based, Sprague-Dawley
Parameters: regimen Daily Repeat, gender Male, age 6 weeks
Conditions: in vivo, po, 0 mg/kg, […], tissue Blood, route gavage, dose level Control, time 28 day
quantity measured: RBC (x10_4/ul)
Respond numerically; units are x10_4/ul and should not be typed.

molecule	endpoint value
O=NN(CCCl)C(=O)NC1CCCCC1 [LOMUSTINE]	783
CC1=C(CC(=O)O)c2cc(F)ccc2/C1=C\c1ccc([S+](C)[O-])cc1 (stereo not drawn)	802.4

Consider the record given below.
Prompt: Look up RBC of CCCCc1oc2ccccc2c1C(=O)c1cc(I)c(OCCN(CC)CC)c(I)c1 [AMIODARONE] and report it.
Completion: 779.2

---

Measured AST, listed per entry for reference.
Organism: Rattus norvegicus
Test: Open TG-GATES - Regimen: Daily Repeat
Format: toxicity, organism-based, Sprague-Dawley
Design: regimen Daily Repeat, gender Male, age 6 weeks
Conditions: in vivo, po, 0 mg/kg, […], tissue Plasma, route gavage, dose level Control, time 28 day
Give the figure together with its unit, number first.

For orientation, consider the following solved cases.
compound	AST
ClC(Cl)(Cl)Cl [CARBON TETRACHLORIDE]	60.4 IU/L
CN(C)C(=N)N=C(N)N	60.8 IU/L
OCCOCCN1CCN(C(c2ccccc2)c2ccc(Cl)cc2)CC1 (centres undefined) [HYDROXYZINE]	61.2 IU/L

Let us move to another entry and its AST.
Prompt: Look up AST of `CCCCc1oc2ccccc2c1C(=O)c1cc(I)c(OCCN(CC)CC)c(I)c1` and report it.
Completion: 61.6 IU/L

---

This listing pairs compounds with measured RBC.
Species on record: Rattus norvegicus
Assay: Open TG-GATES - Regimen: Single
Type: toxicity, organism-based, Sprague-Dawley
Set-up: regimen Single, gender Male, age 6 weeks
Conditions: in vivo, po, 0 mg/kg, 3 h, tissue Blood, route gavage, dose level Control
// note: answer is a bare numeric in x10_4/ul

Examples with answers:
compound	quantity measured	endpoint value
ClC(Cl)(Cl)Cl [CARBON TETRACHLORIDE]	RBC	599
CC1=C(CC(=O)O)c2cc(F)ccc2/C1=C\c1ccc([S+](C)[O-])cc1 (centres undefined)	RBC	645.6
CCC1(c2ccccc2)C(=O)NC(=O)NC1=O	RBC	623.8

Let us move to another entry and its RBC.
Prompt: In one line, give reported RBC of the entry OCCOCCN1CCN(C(c2ccccc2)c2ccc(Cl)cc2)CC1 (centres undefined) [HYDROXYZINE] .
Completion: 616
